Assignment: determine reported EC50 for the given compounds.
# tested_on: UniProtKB P11229
# Sequence (P11229 whole entry): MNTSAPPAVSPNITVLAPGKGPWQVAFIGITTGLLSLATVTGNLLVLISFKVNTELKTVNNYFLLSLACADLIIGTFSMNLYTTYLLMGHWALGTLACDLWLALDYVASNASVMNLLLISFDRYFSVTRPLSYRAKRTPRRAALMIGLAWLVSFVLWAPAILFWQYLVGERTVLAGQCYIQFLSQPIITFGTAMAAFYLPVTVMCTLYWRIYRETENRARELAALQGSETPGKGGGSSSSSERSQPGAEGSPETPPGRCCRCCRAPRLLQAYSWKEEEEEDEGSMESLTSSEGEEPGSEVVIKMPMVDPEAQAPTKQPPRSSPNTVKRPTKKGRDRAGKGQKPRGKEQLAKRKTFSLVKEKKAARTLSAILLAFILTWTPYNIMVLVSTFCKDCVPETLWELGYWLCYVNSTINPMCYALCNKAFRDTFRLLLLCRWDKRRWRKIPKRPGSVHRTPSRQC
Entry format: amount then unit.

Prompt: # lookup: EC50 of `CC[C@H]1C(=O)OC[C@@H]1Cc1c[n+](CCCCCC[N+](C)(C)CC(C)(C)CN2C(=O)c3cccc4cccc(c34)C2=O)cn1C`
Completion: 1.74 µM

Prompt: If you can, please state the reported EC50 value of CC(C)(CN1C(=O)c2cccc3cccc(c23)C1=O)C[N+](C)(C)CCCCCC[n+]1c[nH]c(CC2COC(=O)C2)c1 (centres undefined) .
Completion: 0.251 µM

Prompt: Report EC50 for `CC[C@@H]1C(=O)OC[C@@H]1Cc1c[n+](CCCCCC[N+](C)(C)CC(C)(C)CN2C(=O)c3cccc4cccc(c34)C2=O)cn1C` please.
Completion: 34.7 µM

Prompt: # input compound: `O=C1C[C@@H](Cc2cnc[nH]2)CO1` ; wanted: its EC50
Completion: 6.17 µM

====

# tested_on: Muscarinic acetylcholine receptor M4 (Homo sapiens, UniProt P08173)
# Sequence (P08173 whole entry): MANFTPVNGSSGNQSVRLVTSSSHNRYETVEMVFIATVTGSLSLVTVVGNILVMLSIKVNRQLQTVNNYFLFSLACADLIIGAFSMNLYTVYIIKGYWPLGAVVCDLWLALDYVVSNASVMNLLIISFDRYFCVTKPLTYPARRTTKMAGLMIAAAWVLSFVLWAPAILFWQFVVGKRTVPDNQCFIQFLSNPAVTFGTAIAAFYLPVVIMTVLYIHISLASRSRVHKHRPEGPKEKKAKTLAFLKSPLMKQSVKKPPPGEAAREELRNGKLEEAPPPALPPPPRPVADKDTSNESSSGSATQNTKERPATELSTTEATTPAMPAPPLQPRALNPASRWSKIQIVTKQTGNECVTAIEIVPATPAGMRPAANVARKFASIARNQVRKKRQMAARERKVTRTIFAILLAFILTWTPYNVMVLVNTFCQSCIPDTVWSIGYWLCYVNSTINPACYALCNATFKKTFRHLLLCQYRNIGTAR
readout_kind: pEC50
// pEC50 is dimensionless: -log10 of concentration (M)

Prompt: Notebook: pull reported pEC50 for Muscarinic acetylcholine receptor M4 (Homo sapiens, UniProt P08173), entry Cn1c[n+](CCCCCC[N+](C)(C)CC(C)(C)CN2C(=O)c3cccc4cccc(c34)C2=O)cc1CC1COC(=O)C1 (centres undefined)
Completion: 4.44

Prompt: Give recorded pEC50 with Muscarinic acetylcholine receptor M4 (Homo sapiens, UniProt P08173) for the following compound: CC(C)(CN1C(=O)c2cccc3cccc(c23)C1=O)C[N+](C)(C)CCCCCC[n+]1c[nH]c(CC2COC(=O)C2)c1 (centres undefined)
Completion: 5.58

Prompt: Missing value: pEC50, Muscarinic acetylcholine receptor M4 (Homo sapiens, UniProt P08173), entry `O=C1C[C@@H](Cc2cnc[nH]2)CO1` . Fill in?
Completion: 5.13

Prompt: Could you share what pEC50 was measured for `CC[C@@H]1C(=O)OC[C@@H]1Cc1c[n+](CCCCCCCC[N+](C)(C)CC(C)(C)CN2C(=O)c3cccc4cccc(c34)C2=O)cn1C` , tested on Muscarinic acetylcholine receptor M4 (Homo sapiens, UniProt P08173)?
Completion: 7.02

====

# tested_on: Muscarinic acetylcholine receptor M3 (Homo sapiens)
# Sequence (P20309 whole entry): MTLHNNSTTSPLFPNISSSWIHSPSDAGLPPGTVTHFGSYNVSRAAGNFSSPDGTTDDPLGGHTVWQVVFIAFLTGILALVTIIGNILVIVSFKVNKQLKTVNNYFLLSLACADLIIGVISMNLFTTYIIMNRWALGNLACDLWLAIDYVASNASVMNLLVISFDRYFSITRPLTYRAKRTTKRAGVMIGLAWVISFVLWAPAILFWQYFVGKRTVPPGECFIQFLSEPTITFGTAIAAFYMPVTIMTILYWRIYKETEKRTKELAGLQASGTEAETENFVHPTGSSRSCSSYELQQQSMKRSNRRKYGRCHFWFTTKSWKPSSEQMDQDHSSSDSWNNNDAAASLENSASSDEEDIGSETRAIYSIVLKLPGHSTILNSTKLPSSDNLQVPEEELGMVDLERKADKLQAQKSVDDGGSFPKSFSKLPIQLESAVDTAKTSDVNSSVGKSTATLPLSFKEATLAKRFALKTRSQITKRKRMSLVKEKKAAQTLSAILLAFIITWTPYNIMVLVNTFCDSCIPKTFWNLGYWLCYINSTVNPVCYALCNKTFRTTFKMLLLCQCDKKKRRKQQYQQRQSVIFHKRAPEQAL
For each entry below, report its EC50 value.

Prompt: Which EC50 value belongs to `CC[C@H]1C(=O)OC[C@@H]1Cc1c[n+](CCCCCCCC[N+](C)(C)CC(C)(C)CN2C(=O)c3cccc4cccc(c34)C2=O)cn1C` ?
Completion: 31.6 µM

Prompt: Endpoint output: EC50 of `CC[C@@H]1C(=O)OC[C@@H]1Cc1c[n+](CCCCCC[N+](C)(C)CC(C)(C)CN2C(=O)c3cccc4cccc(c34)C2=O)cn1C` . Value?
Completion: 16.2 µM

Prompt: May I ask what EC50 has been recorded for `O=C1C[C@@H](Cc2cnc[nH]2)CO1` ?
Completion: 20.9 µM

Prompt: So what does the record say about EC50 for `CC[C@H]1C(=O)OC[C@@H]1Cc1c[n+](CCCCCC[N+](C)(C)CC(C)(C)CN2C(=O)c3cccc4cccc(c34)C2=O)cn1C` ?
Completion: 2.82 µM

====

# tested_on: Muscarinic acetylcholine receptor M2 (Homo sapiens, UniProt P08172)
# Sequence (P08172 whole entry): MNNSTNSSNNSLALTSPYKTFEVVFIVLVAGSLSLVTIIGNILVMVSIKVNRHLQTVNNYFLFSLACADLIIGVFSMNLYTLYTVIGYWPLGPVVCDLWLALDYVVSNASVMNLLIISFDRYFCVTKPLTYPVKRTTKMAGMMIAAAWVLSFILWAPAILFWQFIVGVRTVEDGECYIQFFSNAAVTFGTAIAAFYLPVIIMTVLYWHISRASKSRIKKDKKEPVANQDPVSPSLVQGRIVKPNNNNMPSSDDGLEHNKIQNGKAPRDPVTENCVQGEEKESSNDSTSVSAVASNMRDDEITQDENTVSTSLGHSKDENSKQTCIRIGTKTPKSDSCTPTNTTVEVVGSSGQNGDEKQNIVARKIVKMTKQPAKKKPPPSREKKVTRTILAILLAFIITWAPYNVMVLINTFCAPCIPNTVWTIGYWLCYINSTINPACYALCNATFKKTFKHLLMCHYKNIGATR
Give measured pEC50 for each item. Keep answers brief.
Keep it numeric: pEC50 is minus log10 of the concentration in mol/L.

Prompt: # returns recorded pEC50 (system: Muscarinic acetylcholine receptor M2 (Homo sapiens, UniProt P08172)) for CC(C)(CN1C(=O)c2cccc3cccc(c23)C1=O)C[N+](C)(C)CCCCCC[n+]1c[nH]c(CC2COC(=O)C2)c1 (centres undefined)
Completion: 6.60

Prompt: Request - read-out pEC50 | tested on Muscarinic acetylcholine receptor M2 (Homo sapiens, UniProt P08172) | molecule `CC[C@H]1C(=O)OC[C@@H]1Cc1c[n+](CCCCCC[N+](C)(C)CC(C)(C)CN2C(=O)c3cccc4cccc(c34)C2=O)cn1C`
Completion: 6.27

Prompt: So what pEC50 did `O=C1C[C@@H](Cc2cnc[nH]2)CO1` get with Muscarinic acetylcholine receptor M2 (Homo sapiens, UniProt P08172)?
Completion: 5.86

Prompt: Hi! What's the reported pEC50 for `CC[C@@H]1C(=O)OC[C@@H]1Cc1c[n+](CCCCCC[N+](C)(C)CC(C)(C)CN2C(=O)c3cccc4cccc(c34)C2=O)cn1C` on Muscarinic acetylcholine receptor M2 (Homo sapiens, UniProt P08172)?
Completion: 5.97

Data provenance: ChEMBL document CHEMBL5257088
